assay: supercomplex reporter luminescence per Hoechst cell count – Hoechst nuclei count (AID 1645838); details: Cells, luminescence/Hoechst cell count ratio, measured here: cell number, Hoechst nuclei count, library stock concentration (final well concentration not given) 80 uM;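 note: control cybrid cells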
Screen size: about 2,000 compounds; about 100 (5%) were called active. Shown is part of a subset that was picked to be rich in actives.
assay_metric: cell count
Reply with the value as a number alone.

Report cell count, nothing else, for this molecule: Cc1cc(N2CCOCC2)cc2[nH]c(-c3c(NCC(O)c4cccc(Cl)c4)cc[nH]c3=O)nc12 (stereo unspecified)
5280

Report cell count, nothing else, for this molecule: NC(N)=NN=Cc1ccc(Cl)c(Cl)c1
5310

Report cell count, nothing else, for this molecule: CC(CSC(=O)c1ccccc1)C(=O)N1CC(Sc2ccccc2)CC1C(=O)O (stereo unspecified)
6770

Report cell count, nothing else, for this molecule: COc1cc(C2c3cc4c(cc3C(O)[C@H]3COC(=O)[C@@H]23)OCO4)cc(OC)c1OC (stereo partly specified)
5600

Report cell count, nothing else, for this molecule: COC(=O)C(CCSC)NC(=O)c1ccc(NCC(N)CS)cc1-c1ccccc1 (stereo unspecified)
6120

Report cell count, nothing else, for this molecule: CN1CCN(c2ccc(Nc3c4ccccc4nc4ccccc34)cc2)CC1
5080

Report cell count, nothing else, for this molecule: CC(C)(C)C(O)C=Cc1ccc2c(c1)OCO2 (stereo unspecified)
5100

Report cell count, nothing else, for this molecule: Oc1cc(-c2nc(-c3ccccc3)[nH]c2-c2ccncc2)ccc1Cl
6330

Report cell count, nothing else, for this molecule: COc1cc(NS(C)(=O)=O)ccc1Nc1c2ccccc2nc2ccccc12
4290

Report cell count, nothing else, for this molecule: CN(C)C1CCN(C(=O)c2ccc(NC(=O)Nc3ccc(-c4nc(N5CCOCC5)nc(N5CCOCC5)n4)cc3)cc2)CC1
5680

Report cell count, nothing else, for this molecule: COc1cc(C(=O)NS(=O)(=O)c2ccccc2C)ccc1Cc1cn(C)c2ccc(NC(=O)OC3CCCC3)cc12
5870

Report cell count, nothing else, for this molecule: CN(c1ccccc1CNc1nc(Nc2ccc3c(c2)CC(=O)N3)ncc1C(F)(F)F)S(C)(=O)=O
4980

Report cell count, nothing else, for this molecule: Cn1cc(CNCC2CCN(c3ncc(C(=O)NO)cn3)CC2)c2ccccc21
1710

Report cell count, nothing else, for this molecule: CC(=O)Nc1ccc(C(=O)Nc2sc(Nc3ccccc3)nc2C(N)=O)cc1
5180

Report cell count, nothing else, for this molecule: Cc1cc(C)cc(NC(=O)Nc2ccc(S(N)(=O)=O)cc2)c1
5270

Report cell count, nothing else, for this molecule: O=C(O)c1cc(C(F)(F)F)ccc1N1CCC(OCc2ccccn2)C1 (stereo unspecified)
6080

Report cell count, nothing else, for this molecule: CCN(C)C(=O)Oc1cccc(C(C)N(C)C)c1 (stereo unspecified)
6790

Report cell count, nothing else, for this molecule: CCCNC(=O)C1OC1C(=O)N[C@@H](C(=O)N1CCCC1C(=O)O)C(C)CC (stereo partly specified)
4940

Report cell count, nothing else, for this molecule: COc1cc(=C2C=c3ccccc3=N2)[nH]c1=Cc1[nH]c(C)cc1C
5750

Report cell count, nothing else, for this molecule: O=C(Nc1ccccc1)Nc1ccc(-c2ccc(C(=O)C3CCCC3C(=O)O)cc2)cc1 (stereo unspecified)
5980

Report cell count, nothing else, for this molecule: Oc1ccc(C=NN(Cc2ccccc2)Cc2ccccc2)cc1
4430
